Assign composite z-score to each entry below.
# assayed_system: E3 ubiquitin-protein ligase XIAP (Homo sapiens) (UniProt P98170)
# Sequence (P98170 whole entry, looked up): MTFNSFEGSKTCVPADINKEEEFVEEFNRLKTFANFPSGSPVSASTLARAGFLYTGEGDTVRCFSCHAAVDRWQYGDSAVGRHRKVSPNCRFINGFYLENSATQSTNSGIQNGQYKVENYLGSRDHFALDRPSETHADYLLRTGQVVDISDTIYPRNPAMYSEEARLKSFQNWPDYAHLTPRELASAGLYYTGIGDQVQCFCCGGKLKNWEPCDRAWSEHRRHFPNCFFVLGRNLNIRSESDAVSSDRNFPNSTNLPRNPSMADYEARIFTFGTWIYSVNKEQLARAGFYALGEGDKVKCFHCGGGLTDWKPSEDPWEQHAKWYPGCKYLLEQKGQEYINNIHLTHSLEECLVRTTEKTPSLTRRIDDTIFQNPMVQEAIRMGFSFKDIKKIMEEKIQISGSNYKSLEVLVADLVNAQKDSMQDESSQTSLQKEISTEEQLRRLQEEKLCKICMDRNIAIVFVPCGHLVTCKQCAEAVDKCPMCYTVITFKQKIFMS
# assay_explanation: small molecules binding XIAP protein – biophysical, small-molecule microarray, fluorescence 635 nm, primary screen (AID 1181);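 further: score merges 667 nm emission and signal to noise over triplicate slides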
# applied_conditions: higher = more signal
Numbers only.

>>> reported_value("CC1CC/C=C\\[C@H]2OC34C=CCN(Cn5nnc6ccccc65)C(=O)[C@H]3N(CCCCCCO)C(=O)[C@@H]4C2C(=O)O1 (some centres not stated)")
-0.244
>>> reported_value("CCCN1C(=O)[C@@]2(c3ccc([N+](=O)[O-])cc3)CC(=O)N(CC34CC5CC(CC(C5)C3)C4)[C@@H]2c2ccc(CO)cc21")
0.0666

# batch size: 2; output composite z-score per entry
1. COCCOC(=O)N1C(=O)[C@@]2(c3cc(C#CCCO)ccc31)[C@H](c1ccc(OCCO)cc1)N1[C@H](c3ccccc3)[C@H](c3ccccc3)OC(=O)[C@H]1[C@@H]2C(=O)N1CCCCCCC1
2. CC1=C([C@H](O)CCc2ccccc2)[C@H](CO)n2c(=O)n(-c3ccccc3)c(=O)n2C1

[0.152, -0.237]

Could you tell me composite z-score for each of these compounds? They are listed below.
1. C=CCC(OC(C)=O)[C@@H]1[C@@H](N(Cc2cccc3ccccc23)C(=O)Cc2ccc(OC)cc2)c2cc(OCCCO)ccc2N1C(=O)c1ccc2ccccc2c1 (some centres not stated)
2. COc1cc(C(O)C2C=CC3C(=O)N(c4ccccc4)C(=O)C3N2Nc2ccccc2)cc(OC)c1OC (configuration not stated)
3. COC(=O)[C@@]1(Cc2ccccc2)[C@H]2c3cc(C(=O)N(C)C)n(CCSC(=N)N)c3C[C@H]2CN1C(=O)c1ccccc1

[-0.123, 0.0845, -0.0592]
